Listing: concentration at 8 h of selected compounds
# ASSAY_METHOD_TEXT: Rat plasma metabolite profiles after single oral 5 mg/kg [14C]DCDQ
# Type: in vivo, Sprague-Dawley rats
# SETUP_CONDITIONS: Sprague-Dawley, rat, plasma, female, 8 hr, mean n = 3, read-out: Estimated plasma concentration in rats
Where a name gives a salt, the structure may show the parent alone.

- COMPOUND: "OC1CNCc2cccc3c2N1C[C@@H]1CCC[C@H]31 (some centres unmarked) [Metabolite M10, hydroxy DCDQ]"
  QUANTITY_UNIT: "ng/mL"
  concentration at 8 h: 18.9
- COMPOUND: "O=C1CC[C@@H]2c3cccc4c3N(CCNC4)C[C@H]12 [Metabolite M7, 17-keto DCDQ]"
  QUANTITY_UNIT: "ng/mL"
  concentration at 8 h: 17.5
- COMPOUND: "OC1CN2C[C@@H]3CCC[C@@H]3c3cccc(c32)CN1 (some centres unmarked) [Metabolite M1, hydroxy DCDQ]"
  QUANTITY_UNIT: "ng/mL"
  concentration at 8 h: 6.52
- COMPOUND: "O=S(=O)(O)OC1CC[C@@H]2c3cccc4c3N(CCNC4)CC12 (some centres unmarked) [Metabolite M13, 17-hydroxy DCDQ sulfate]"
  QUANTITY_UNIT: "ng/mL"
  concentration at 8 h: 5.62
- COMPOUND: "c1cc2c3c(c1)[C@H]1CCC[C@H]1CN3CCNC2 [DCDQ, reference compound]"
  QUANTITY_UNIT: "ng/mL"
  concentration at 8 h: 49.4

====

# System: cytochrome P450 (NADPH-dependent metabolism)
# ASSAY_METHOD_TEXT: Incubation of [14C]DCDQ with human liver microsomes (Km values, metabolite formation)
# Type: in vitro ADME
# SETUP_CONDITIONS: pH 7.4; 0.5 mg/mL human liver microsomes, [14C]DCDQ 0.5-100 μM, NADPH regenerating system, 20 min

- MOLECULE: "[O-][N+]12CCN=Cc3cccc(c31)[C@H]1CCC[C@H]1C2 (stereo partly drawn) [Metabolite M5, DCDQ imine N-oxide]"
  Km at 20 min (µM): 36.2
- MOLECULE: "OC1CN2C[C@@H]3CCC[C@@H]3c3cccc(c32)CN1 (stereo partly drawn) [Metabolite M1, hydroxy DCDQ]"
  Km at 20 min (µM): 10.8

====

# ASSAY_METHOD_TEXT: Rat brain radioactivity content and metabolite profiles after single oral 5 mg/kg [14C]DCDQ
# Format: in vivo, Sprague-Dawley rats
# SETUP_CONDITIONS: Sprague-Dawley, rat, brain, oral, 5 mg/kg; male rats, 2 hr, mean ± S.D., N = 3; read-out: Brain concentration, DCDQ (estimated)
METRIC_NAME: concentration at 2 h (ng/g)

- COMPOUND: "c1cc2c3c(c1)[C@H]1CCC[C@H]1CN3CCNC2 [DCDQ, reference compound]"
  REPORTED: 4630

====

# ASSAY_METHOD_TEXT: Concentrations of DCDQ and DCDQ carbamoyl glucuronide (M6) in human plasma, LC/SRM (Table 34)
# Assay type: in vivo, healthy human subjects
# SETUP_CONDITIONS: human, plasma, oral, 500 mg, plasma, 500 mg (fasted), 24 hr, Mean ± S.D.; read-out: M6 concentration in plasma

- COMPOUND: "O=C(O)[C@H]1O[C@@H](OC(=O)N2CCN3C[C@@H]4CCC[C@@H]4c4cccc(c43)C2)[C@H](O)[C@@H](O)[C@@H]1O [Metabolite M6, carbamoyl glucuronide of DCDQ]"
  concentration at 24 h / ng/mL: 49.6

====

# ASSAY_METHOD_TEXT: Dog plasma metabolite profiles after single 15 mg/kg oral capsule of [14C]DCDQ
# Format: in vivo, beagle dogs
# SETUP_CONDITIONS: male, beagle, dog, plasma, oral, 15 mg/kg, 4 hr, dog 1; read-out: Estimated plasma concentration in dogs
METRIC_NAME: concentration at 4 h (µg/mL)

- MOLECULE: "c1cc2c3c(c1)[C@H]1CCC[C@H]1CN3CCNC2 [DCDQ, reference compound]"
  METRIC_NAME: "concentration at 4 h"
  REPORTED: 0.0525
- MOLECULE: "OC1[C@@H]2CCC[C@@H]2c2cccc3c2N1CCNC3 (some centres unmarked) [Metabolite M2, hydroxy DCDQ]"
  METRIC_NAME: "concentration at 4 h"
  REPORTED: 0.0331
- MOLECULE: "[O-][N+]12CCN=Cc3cccc(c31)[C@H]1CCC[C@H]1C2 (some centres unmarked) [Metabolite M5, DCDQ imine N-oxide]"
  METRIC_NAME: "concentration at 4 h"
  REPORTED: 0.0331
- MOLECULE: "OC1CN2C[C@@H]3CCC[C@@H]3c3cccc(c32)CN1 (some centres unmarked) [Metabolite M1, hydroxy DCDQ]"
  METRIC_NAME: "concentration at 4 h"
  REPORTED: 0.04
- MOLECULE: "O=C1CC[C@@H]2c3cccc4c3N(CCNC4)C[C@H]12 [Metabolite M7, 17-keto DCDQ]"
  METRIC_NAME: "concentration at 4 h"
  REPORTED: 0.0345

====

# ASSAY_METHOD_TEXT: Rat brain radioactivity content and metabolite profiles after single oral 5 mg/kg [14C]DCDQ
# Type: in vivo, Sprague-Dawley rats
# SETUP_CONDITIONS: Sprague-Dawley, rat, brain and plasma, oral, 5 mg/kg; male rats, 4 hr; read-out: Brain/Plasma Ratio, DCDQ
METRIC_NAME: Kp at 4 h

- COMPOUND: "c1cc2c3c(c1)[C@H]1CCC[C@H]1CN3CCNC2 [DCDQ, reference compound]"
  REPORTED: 50.5

====

# ASSAY_METHOD_TEXT: Dog plasma metabolite profiles after single 15 mg/kg oral capsule of [14C]DCDQ
# Format: in vivo, beagle dogs
# SETUP_CONDITIONS: male, beagle, dog, plasma, oral, 15 mg/kg, 2 hr, dog 2; read-out: Estimated plasma concentration in dogs
METRIC_NAME: log10 of concentration at 2 h (log10 of the value in ng/mL)

- MOLECULE: "O=C(O)[C@H]1O[C@@H](OC(=O)N2CCN3C[C@@H]4CCC[C@@H]4c4cccc(c43)C2)[C@H](O)[C@@H](O)[C@@H]1O [Metabolite M6, carbamoyl glucuronide of DCDQ]"
  log10 of concentration at 2 h: 2.38
- MOLECULE: "c1cc2c3c(c1)[C@H]1CCC[C@H]1CN3CCNC2 [DCDQ, reference compound]"
  log10 of concentration at 2 h: 1.37
- MOLECULE: "[O-][N+]12CCN=Cc3cccc(c31)[C@H]1CCC[C@H]1C2 (some centres unmarked) [Metabolite M5, DCDQ imine N-oxide]"
  log10 of concentration at 2 h: 1.56
- MOLECULE: "OC1[C@@H]2CCC[C@@H]2c2cccc3c2N1CCNC3 (some centres unmarked) [Metabolite M2, hydroxy DCDQ]"
  log10 of concentration at 2 h: 2.00
- MOLECULE: "OC1CN2C[C@@H]3CCC[C@@H]3c3cccc(c32)CN1 (some centres unmarked) [Metabolite M1, hydroxy DCDQ]"
  log10 of concentration at 2 h: 1.52

====

# ASSAY_METHOD_TEXT: Dog plasma metabolite profiles after single 15 mg/kg oral capsule of [14C]DCDQ
# Assay type: in vivo, beagle dogs
# SETUP_CONDITIONS: 24 hr, dog 1
# Experimental: For plasma profiles, a TopCount NXT radiometric microplate reader (Perkin Elmer) was used to analyze the radioactivity in collected HPLC fractions. The limit of detection by TopCount was about 1 ng equivalent/mL. A Flo-One β Model A525 radioactivity detector (Perkin Elmer) with a 250 μL LQTR flow cell was used to acquire data for urine and fecal samples. […] Plasma samples were analyzed for metabolite profiles by HPLC. […] The plates were dried overnight in an oven at 40° C. and analyzed by a TopCount. […]
METRIC_NAME: Chromatographic distribution of radioactivity in dog plasma

- COMPOUND: "OC1CN2C[C@@H]3CCC[C@@H]3c3cccc(c32)CN1 (stereo partly shown) [Metabolite M1, hydroxy DCDQ]"
  REPORTED: "6.8%"
- COMPOUND: "O=C(O)[C@H]1O[C@@H](OC(=O)N2CCN3C[C@@H]4CCC[C@@H]4c4cccc(c43)C2)[C@H](O)[C@@H](O)[C@@H]1O [Metabolite M6, carbamoyl glucuronide of DCDQ]"
  REPORTED: "17%"
- COMPOUND: "O=C1CC[C@@H]2c3cccc4c3N(CCNC4)C[C@H]12 [Metabolite M7, 17-keto DCDQ]"
  REPORTED: "13%"
- COMPOUND: "c1cc2c3c(c1)[C@H]1CCC[C@H]1CN3CCNC2 [DCDQ, reference compound]"
  REPORTED: "2.6%"

====

# ASSAY_METHOD_TEXT: Rat plasma metabolite profiles after single oral 5 mg/kg [14C]DCDQ
# Type: in vivo, Sprague-Dawley rats
# SETUP_CONDITIONS: Sprague-Dawley, rat, plasma, male, 4 hr, mean n = 3, read-out: Estimated plasma concentration in rats
# Description: Plasma samples were analyzed for metabolite profiles by HPLC. Aliquots of 1.5 mL plasma were mixed with 3.0 mL methanol, placed on ice for about 10 minutes, and then centrifuged. The supernatant was transferred to a clean tube. […] The concentrated extract was centrifuged, the supernatant volume measured and extraction efficiency was determined by analyzing duplicate 10 μL aliquots for radioactivity. An aliquot of the supernatant (50-200 μL) was analyzed by HPLC with radioactivity flow detection. […]
Structures can show the parent of a compound that is named as a salt.
Listing: concentration at 4 h of selected compounds

- COMPOUND: "OC1[C@@H]2CCC[C@@H]2c2cccc3c2N1CCNC3 (stereo partly shown) [Metabolite M2, hydroxy DCDQ]"
  concentration at 4 h, ng/mL: 22.6
- COMPOUND: "O=C1CC[C@@H]2c3cccc4c3N(CCNC4)C[C@H]12 [Metabolite M7, 17-keto DCDQ]"
  concentration at 4 h, ng/mL: 62.1
- COMPOUND: "O=S(=O)(O)OC1CC[C@@H]2c3cccc4c3N(CCNC4)CC12 (stereo partly shown) [Metabolite M13, 17-hydroxy DCDQ sulfate]"
  concentration at 4 h, ng/mL: 14.2
- COMPOUND: "OC1CN2C[C@@H]3CCC[C@@H]3c3cccc(c32)CN1 (stereo partly shown) [Metabolite M1, hydroxy DCDQ]"
  concentration at 4 h, ng/mL: 59.7
- COMPOUND: "CC(=O)N1Cc2cccc3c2N(C[C@@H]2CCC[C@H]32)C(O)C1 (stereo partly shown) [Metabolite M11, acetylated hydroxy DCDQ]"
  concentration at 4 h, ng/mL: 34.5
- COMPOUND: "c1cc2c3c(c1)[C@H]1CCC[C@H]1CN3CCNC2 [DCDQ, reference compound]"
  concentration at 4 h, ng/mL: 90.8
- COMPOUND: "OC1CNCc2cccc3c2N1C[C@@H]1CCC[C@H]31 (stereo partly shown) [Metabolite M10, hydroxy DCDQ]"
  concentration at 4 h, ng/mL: 9.81

FYI, the data here is from patent US20060111305A1.
